biological target: F508delCFTR (Homo sapiens, UniProt P13569, DEL508-508); construct: expressed in transfected cells; host or cells: CFBE41o- human lung-derived epithelial cells (CFBE4lo-F508delCFTR-HRP), doxycycline-inducible; assay: Cell Surface Expression-Horse Radish Peroxidase (CSE-HRP) Assay; type: cell-based; conditions: test compound without co-corrector; maximum at any tested concentration, normalized to on-plate positive control; read-out: Maximum % activity (without co-corrector);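 also: percent of the 2 µM on-plate positive control corrector response above DMSO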
Sequence (P13569 with tags, fused parts or gaps DEL508-508): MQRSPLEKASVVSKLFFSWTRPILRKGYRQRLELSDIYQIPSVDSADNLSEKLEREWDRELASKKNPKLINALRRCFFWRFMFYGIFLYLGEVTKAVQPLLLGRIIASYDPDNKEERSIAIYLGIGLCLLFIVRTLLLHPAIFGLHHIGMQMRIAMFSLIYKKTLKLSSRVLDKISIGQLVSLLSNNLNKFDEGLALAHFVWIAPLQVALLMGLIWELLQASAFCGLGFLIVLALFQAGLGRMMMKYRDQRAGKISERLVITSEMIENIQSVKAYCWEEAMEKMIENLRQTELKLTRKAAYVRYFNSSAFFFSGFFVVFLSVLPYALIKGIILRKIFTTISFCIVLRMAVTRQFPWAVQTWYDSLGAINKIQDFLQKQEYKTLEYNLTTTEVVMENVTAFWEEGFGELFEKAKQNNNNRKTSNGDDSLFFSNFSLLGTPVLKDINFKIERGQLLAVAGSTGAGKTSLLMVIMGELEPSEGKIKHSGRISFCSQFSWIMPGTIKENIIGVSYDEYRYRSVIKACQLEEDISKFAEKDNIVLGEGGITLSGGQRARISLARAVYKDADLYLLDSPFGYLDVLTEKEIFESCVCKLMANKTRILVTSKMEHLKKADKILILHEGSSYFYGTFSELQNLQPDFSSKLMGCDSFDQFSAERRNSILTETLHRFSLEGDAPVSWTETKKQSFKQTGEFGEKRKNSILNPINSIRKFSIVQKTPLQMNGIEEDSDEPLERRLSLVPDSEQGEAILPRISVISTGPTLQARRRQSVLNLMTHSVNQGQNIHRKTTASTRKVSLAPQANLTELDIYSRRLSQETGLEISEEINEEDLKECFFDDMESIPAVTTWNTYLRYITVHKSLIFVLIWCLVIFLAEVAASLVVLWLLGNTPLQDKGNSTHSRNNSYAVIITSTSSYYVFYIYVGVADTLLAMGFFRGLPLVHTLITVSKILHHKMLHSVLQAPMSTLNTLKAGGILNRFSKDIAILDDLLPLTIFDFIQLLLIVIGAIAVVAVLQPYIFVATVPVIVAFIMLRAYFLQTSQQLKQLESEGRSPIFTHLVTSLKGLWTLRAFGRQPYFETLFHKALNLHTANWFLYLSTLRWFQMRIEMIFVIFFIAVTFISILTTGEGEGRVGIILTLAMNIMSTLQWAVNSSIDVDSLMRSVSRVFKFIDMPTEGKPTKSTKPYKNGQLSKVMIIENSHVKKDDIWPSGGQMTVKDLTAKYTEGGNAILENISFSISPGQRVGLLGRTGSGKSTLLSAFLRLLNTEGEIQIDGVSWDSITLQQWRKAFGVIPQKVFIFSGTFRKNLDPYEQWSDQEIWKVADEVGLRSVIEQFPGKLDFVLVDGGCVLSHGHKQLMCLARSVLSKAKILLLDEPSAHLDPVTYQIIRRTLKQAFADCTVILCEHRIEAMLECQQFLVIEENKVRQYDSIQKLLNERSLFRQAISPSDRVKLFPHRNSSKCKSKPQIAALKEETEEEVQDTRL
measurementName: Emax

Please review the entries below; each comes with its answer.
>  <molecule>
CC(C)OC(=O)N1[C@H](C(=O)O)[C@@H](C(C)(C)C)[C@H](NCC2CCN(C(C)C)CC2)[C@@H]1c1ccccc1 [III-235]

>  <Emax>
< 100%

$$$$
>  <molecule>
CCn1nc(C)c(C(=O)N2[C@H](C(=O)O)[C@@H](C(C)(C)C)[C@H](NCc3cc(C(C)(C)C)ccc3OC)[C@@H]2c2ccccc2)c1C [II-362]

>  <Emax>
100 to 200%

$$$$

Let us move to another entry and its Emax.
# get_value(readout='Emax', item= COc1cc2c(cc1CN[C@H]1[C@H](C(C)(C)C)[C@@H](C(=O)O)N(C(=O)OC(C)C)[C@H]1c1cccnc1N(C)C)CCC2 [II-563] )
100 to 200%
